- EXPERIMENTAL SYSTEM: T1, cynomolgus monkey (cyno) complement protein C5 (cynomolgus monkey, UniProt A0A2K5U1T1 19-1676)
- T1 construct: also called cC5; cyno C5
- ASSAY OVERVIEW: SPR (Biacore), pH 6.0
PARAMETER MEASURED: koff (s⁻¹)
Could you give me the number in s⁻¹? Just the number is fine.

koff for CRL0499 (bispecific antibody, anti-albumin VHH / (G4S)3 / anti-C5 VHH fusion, purified by Protein A; also called CRL0499 (HSA/C5)) EVQLLESGGGLVQPGGSLRLSCAASGFTFRSFGMSWVRQAPGKGPEWVSSISGSGSDTLYADSVKGRFTISRDNSKNTLYLQMNSLRPEDTAVYYCTIGGSLSRSSQGTLVTVSSGGGGSGGGGSGGGGSEVQLVESGGGLVQPGGSLRLSCAASGRAHSDYAMAWFRQAPGQEREFVAGIGWSGGDTLYADSVRGRFTNSRDNSKNTLYLQMNSLRAEDTAVYYCAARQGQYIYSSMRSDSYDYWGQGTLVTVSS is 0.00388

koff for CRL0483 (bispecific antibody, anti-C5 VHH / (G4S)3 / anti-albumin VHH fusion, purified by Protein A; also called CRL0483 (C5/HSA)) EVQLVESGGGLVQPGGSLRLSCAASGRTFSGILSPYAVGWFRQAPGKGLEFVSTITSGGSAIYTDSVKGRFTISRDNAKDSLYLQMNSLRAEDTAVYYCAVRTRRYGSNLGEVPQENEYGYWGQGTLVTVSSGGGGSGGGGSGGGGSEVQLLESGGGLVQPGGSLRLSCAASGFTFRSFGMSWVRQAPGKGPEWVSSISGSGSDTLYADSVKGRFTISRDNSKNTLYLQMNSLRPEDTAVYYCTIGGSLSRSSQGTLVTVSS is 4.62e-05

koff for CRL0500 (bispecific antibody, anti-albumin VHH / (G4S)3 / anti-C5 VHH fusion, purified by Protein A; also called CRL0500 (HSA/C5)) EVQLVESGGGLVKPGGSLRLSCAASGRPVSNYAAAWFRQAPGKEREFVSAINWQKTATYADSVKGRFTISRDNAKNSLYLQMNSLRAEDTAVYYCAAVFRVVAPKTQYDYDYWGQGTLVTVSSGGGGSGGGGSGGGGSEVQLVESGGGLVQPGGSLRLSCAASGRAHSDYAMAWFRQAPGQEREFVAGIGWSGGDTLYADSVRGRFTNSRDNSKNTLYLQMNSLRAEDTAVYYCAARQGQYIYSSMRSDSYDYWGQGTLVTVSS is 0.0025
